Each entry below carries its measured pIC50, system: ADAMTS4 (Homo sapiens, UniProt O75173).
Sequence (O75173 213-685 limits assumed): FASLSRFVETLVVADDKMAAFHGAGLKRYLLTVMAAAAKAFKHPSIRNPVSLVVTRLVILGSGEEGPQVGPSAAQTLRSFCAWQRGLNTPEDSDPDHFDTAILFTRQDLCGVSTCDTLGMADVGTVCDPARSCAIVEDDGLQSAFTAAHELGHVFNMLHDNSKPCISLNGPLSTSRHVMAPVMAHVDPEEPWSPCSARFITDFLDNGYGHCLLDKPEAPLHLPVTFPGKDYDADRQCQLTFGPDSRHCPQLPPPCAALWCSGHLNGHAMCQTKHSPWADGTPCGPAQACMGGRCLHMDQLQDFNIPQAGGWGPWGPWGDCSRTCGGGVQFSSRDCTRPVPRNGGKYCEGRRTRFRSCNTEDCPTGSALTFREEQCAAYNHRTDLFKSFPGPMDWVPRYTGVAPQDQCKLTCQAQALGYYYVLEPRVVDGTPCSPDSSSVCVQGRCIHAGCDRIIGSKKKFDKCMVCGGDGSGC
Lab note: report pIC50 as minus log10 of the concentration in molar units, number only.

Problem: Value lookup for pIC50; key = CC(C)C1(CNC(=O)c2cnn(-c3ccc(Cl)c(F)c3)n2)NC(=O)NC1=O (single isomer, unassigned; ent-2) [Example 125]
Solution: 6.00

Problem: Now try Cn1ccnc1C1(CNC(=O)c2cnn(-c3ccc(F)cc3)n2)NC(=O)NC1=O (single isomer, unassigned; ent-2) [Example 144] .
Solution: 6.89

Problem: Now try CC1(C)CC1C1(CNC(=O)c2cnn(-c3ccccc3)n2)NC(=O)NC1=O (stereo not drawn) [Example 43] .
Solution: 4.89

Problem: Now try O=C1NC(=O)C(CNC(=O)c2cnn(-c3ccc(F)c(Cl)c3)n2)(c2nccs2)N1 (single isomer, unassigned; ent-2) [Example 112] .
Solution: 6.11

Problem: Now try O=C1NC(=O)C(CNC(=O)c2cnn(-c3ccc(F)cc3F)n2)(c2nccs2)N1 (racemic) [Example 115] .
Solution: 5.18

Problem: Now try O=C1NC(=O)[C@](CNC(=O)c2cnn(-c3cc(F)ccc3F)n2)(C2CC2)N1 [Example 36] .
Solution: 5.26

Problem: Now try O=C1NC(=O)[C@](CNC(=O)c2cnn(-c3ccc(Br)cc3)n2)(C2CC2)N1 [Example 33] .
Solution: 5.85

Problem: Now try CC(C)(C)CC1(CNC(=O)c2cnn(-c3ccccc3)n2)NC(=O)NC1=O (stereo not drawn) [Example 44] .
Solution: 5.30

Problem: Now try CCC(C)C1(CNC(=O)c2cnn(-c3ccc(F)cc3)n2)NC(=O)NC1=O (single isomer, unassigned) [Example 104] .
Solution: 5.66

Problem: Now try O=C1NC(=O)[C@](CNC(=O)c2cnn(-c3ccccn3)n2)(C2CC2)N1 [Example 60] .
Solution: 5.08

Problem: Now try O=C1NC(=O)C(CNC(=O)c2cnn(-c3ccccc3)n2)(C2CCCOC2)N1 (single isomer, unassigned; dia2) [Example 85] .
Solution: 5.19

Problem: Now try O=C1NC(=O)C(CNC(=O)c2cnn(-c3ccc(F)cc3)n2)(C2CCCC2)N1 (stereo not drawn) [Example 74] .
Solution: 5.23

Problem: Now try N#Cc1cccc(-n2ncc(C(=O)NC[C@@]3(C4CC4)NC(=O)NC3=O)n2)c1 [Example 17] .
Solution: 6.22

Problem: Now try O=C1NC(=O)C(CNC(=O)c2cnn(-c3ccccc3)n2)(C2CCC2)N1 (racemic) [Example 52] .
Solution: 4.85
